B1: CDKL4 (parent)
chain: AVKKFVESEDDPVVKKIALREIRM

# Variants of: B1
# assay_procedure: protein stability index of a GFP-peptide fusion (GPS, HEK-293T) (PSI 1-6); higher = more stable;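 note: lentivirally expressed fusions sorted by FACS into six bins by GFP to DsRed ratio, PSI derived from sequencing read proportions per bin multiplied by bin number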
# assay_setup: c terminus: a fixed tail appended
Reported protein stability index is given for each of the following variants.
// response body must contain only the number

1) E7W: 2.14
2) A1T: 3.1
3) R20G: 3.03
4) S8R: 2.43
5) I22Q: 3.62

Next item in the queue.
Using the record for "K4H" , report its protein stability index.
2.88

Origin of measurements: the supplement of paper PMC10567573
